Measured values drawn from paper PMC11784839 for this set.

- measured-on: tau (Homo sapiens)
- Sequence (P10636 623-695 limits assumed): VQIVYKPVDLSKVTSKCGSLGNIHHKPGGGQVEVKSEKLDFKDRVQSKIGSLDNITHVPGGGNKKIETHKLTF
- assay-details: MCE Phenols Library screening, tau biosensor cell seeding assay (AvZ)
- Type: cell-based
- run-parameters: average of raw data 1 and 2
reported-endpoint: av puncta

Recorded results for 3 compounds are shown here.
compound: COc1ccc(-c2cc(=O)c3c(O)c(OC)c(OC)c(OC)c3o2)cc1 [Gardenin B]
av puncta: 29624.1
//
compound: Oc1cc(O)c2ccc(-c3ccc(O)c(O)c3)[o+]c2c1.[Cl-] [Luteolinidin (chloride)]
av puncta: 7678.85
//
compound: O=C(/C=C/c1ccccc1)c1ccc(O)cc1 [4'-Hydroxychalcone]
av puncta: 22065.5

Below are 2 compounds. Give each one its av puncta.
1. O=c1cc(-c2ccc(O)cc2)oc2cccc(O)c12 [4',5-Dihydroxyflavone]
2. O=C1O[C@H]2[C@@H]3OC(=O)c4cc(O)c(O)c(O)c4-c4c(cc(O)c(O)c4O)C(=O)OC[C@H]2O[C@@H](OC(=O)c2cc(O)c(O)c(O)c2)[C@@H]3OC(=O)c2cc(O)c(O)c3c2[C@@H]2C1=CC(=O)[C@](O)(O3)C2(O)O [Geraniin]

Solution:
24336.3
501.022

Below are 2 compounds. Give each one its av puncta.
1. O=c1cc(O)cc(/C=C/c2ccc(O)c(O)c2)o1 [Hispidin]
2. O=C1C[C@@H](c2ccc(O[C@@H]3O[C@H](CO)[C@@H](O)[C@H](O)[C@H]3O)cc2)Oc2cc(O)ccc21 [Liquiritin]

Solution:
23081.7
19987.6
